# assayComment: physchem
# Type: physicochemical
# studyConditions: pH 7.4
attributeMeasured: logD
Answers are plain numbers.

Looking for the measured logD of CC(=O)NC(CCCCNC(=O)CNC(=O)C(CO)NC(=O)C(CO)NC(=O)C(CO)NC(=O)CS)C(=O)NCCCCCCCC(=O)NC(Cc1ccc(O)cc1)C(=O)NC(Cc1ccc2ccccc2c1)C(=O)NCCCCC(NC(=O)NC(CCC(=O)O)C(=O)O)C(=O)O (stereo not shown) [[^99mTc]Tc-BQ0501, metal not drawn] , can you help? -2.4
